Tested on: MOLM-13 cells
ASSAY NOTES: MOLM-13 Uridine Rescue Assay
Format: cell-based
APPLIED CONDITIONS: Homo sapiens; MOLM-13 cell proliferation with 100 μM Uridine added, 72 Hours of culture
For each of the molecules below, state its pIC50.
Here pIC50 is given on a logarithmic scale as minus log10 of the concentration in mol/L.

input: Quick check: pIC50 of Cc1nc(C)nc(N2CCc3c([nH]c4cc(N)c(Cl)cc34)C2c2cnc(N3CCOCC3)nc2)n1 (stereo not drawn) ?
output: 5.01

input: Endpoint output: pIC50 of `FC(F)(F)c1nc(N2CCc3c([nH]c4ccc(Cl)cc34)[C@@H]2c2cnc(N3CCOCC3)nc2)nc(C(F)(F)F)n1` . Value?
output: 5.08

input: I have this molecule here, Cc1ccc(C2c3[nH]c4cc(F)c(Cl)cc4c3CCN2c2nccc(C(F)(F)F)n2)cc1 (stereo not drawn) , and I need its recorded pIC50.
output: 4.73

input: Report pIC50 for `FC(F)(F)c1ccnc(N2CCc3c([nH]c4ccc(Cl)cc34)[C@@H]2c2cnc(N3CCOCC3)nc2)n1` please.
output: 4.96

input: Requested read-out: pIC50. Entry: Cc1ccc(C2c3[nH]c4ccc(Cl)c(N)c4c3CCN2c2nccc(C(F)(F)F)n2)c(F)c1F (stereo not drawn)
output: 4.53

input: Which pIC50 value is on record for FC(F)(F)c1ccnc(N2CCc3c([nH]c4ccc(-n5nccn5)cc34)C2c2cnc(N3CCOCC3)nc2)n1 (stereo not drawn) ?
output: 4.94

input: Given `FC(F)(F)c1cc(C(F)(F)F)nc(N2CCc3c([nH]c4ccc(Cl)cc34)[C@@H]2c2ccc(N3CCOCC3)nc2)n1` , state its recorded pIC50.
output: 4.90

input: Fill in: pIC50 of Cc1nc(C)nc(N2CCc3c([nH]c4c(O)cc(Cl)cc34)C2c2ccc(C)c(F)c2F)n1 (stereo not drawn) is ___
output: 5.70

input: # query: pIC50 of entry Cc1ccc(C2c3[nH]c4ccc(Br)cc4c3CCN2c2nccc(C(F)(F)F)n2)cc1 (stereo not drawn)
output: 4.68

input: Field request: pIC50 | item: Fc1cc2[nH]c3c(c2cc1Cl)CCN(c1nc(C(F)(F)F)cc(C(F)(F)F)n1)C3c1cccc(F)c1F (stereo not drawn)
output: 4.83

input: # lookup: pIC50 of `Cc1ccc([C@H]2c3[nH]c4ccc(Cl)cc4c3CCN2c2nc(C(F)(F)F)nc(C(F)(F)F)n2)c(F)c1F`
output: 5.12

input: Could you tell me which pIC50 is on file for Cc1nc(C)nc(N2CCc3c([nH]c4ccc(Cl)cc34)C2c2ccc(C)c(F)c2F)n1 (stereo not drawn) ?
output: 5.18

input: Please give the measured pIC50 for this molecule: `FC(F)(F)c1ncnc(N2CCc3c([nH]c4ccc(Cl)cc34)[C@@H]2c2cnc(N3CCOCC3)nc2)n1`
output: 5.94

input: Can you look up the measured pIC50 of Cc1cc(C(F)(F)F)nc(N2CCc3c([nH]c4ccc(Cl)cc34)C2c2ccc(N3CCOCC3)nc2)n1 (stereo not drawn) for me?
output: 4.79

input: Query: pIC50; subject: Cc1ccc(C2c3[nH]c4c(N)cc(Cl)cc4c3CCN2c2nccc(C(F)(F)F)n2)cc1 (stereo not drawn)
output: 4.72
